- subject of test: T1, recombinant human SOST (rhSOST) (human, UniProt Q9BQB4 24-213)
- T1 construct: Treated as one molecule; also called recombinant human SOST protein; human sclerostin
- T1 sequence: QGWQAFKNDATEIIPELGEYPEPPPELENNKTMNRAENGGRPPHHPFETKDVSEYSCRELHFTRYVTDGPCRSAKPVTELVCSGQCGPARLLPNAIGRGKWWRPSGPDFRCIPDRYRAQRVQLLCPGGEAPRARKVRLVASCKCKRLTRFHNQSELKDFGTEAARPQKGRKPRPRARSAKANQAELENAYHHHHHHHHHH
- experiment: SPR Biacore T200, IgG captured via anti-human Fc, rhSOST analyte, 37 C
The reader will find reported Kd values listed item by item below.
endpoint label: Kd (nM)

1. DM6 (antibody, V domains shown, also called mH10/mL17) VH: EVQLLESGGGLVQPGGSLRLSCAASGHTFSDYWMQWVRQAPGKGLEWVGAIYPGDGDTRYNQKFKDRFTISRDNSKNTLYLQMNSLRAEDTAVYYCARSMDYWGQGTLVTVSS VL: DIVMTQSPDSLAVSLGERATINCRASKTVDSYGNSFMHWYQQKPGQPPKLLIYHSSNLESGVPDRFSGSGSGTDFTLTISSLQAEDVAVYYCLQTIEFPYTFGQGTKLEIK: 1.18
2. DM26 (antibody, V domains shown, also called mH5/wt) VH: EVQLLESGGGLVQPGGSLRLSCAASGHTFTDYWMQWVRQAPGKGLEWISAIYPGDGDTRYNQKFKDRFTISRDNSKNTLYLQMNSLRAEDTAVYYCARSMDYWGQGTLVTVSS VL: DIVMTQSPDSLAVSLGERATINCRASKTVDSYGNSFMHWFQQKPGQPPKLLIHHSSNLESGVPDRFSGSGSGTDFTLTISSLQAEDVAVYYCLQTIEDPYTFGQGTKLEIK: 0.053
3. DM16 (antibody, V domains shown, also called wt/mL5) VH: EVQLLESGGGLVQPGGSLRLSCAASGHTFTDYWMQWVRQAPGKGLEWIGAIYPGDGDTRYNQKFKDRFTISRDNSKNTLYLQMNSLRAEDTAVYYCARSMDYWGQGTLVTVSS VL: DIVMTQSPDSLAVSLGERATINCRASKTVDSYGNSFMHWFQQKPGQPPKLLIHHSSNLESGVPDRFSGSGSGTDFTLTISSLQAEDVAVYYCLQTIEDHYTFGQGTKLEIK: 0.207
